Values were extracted from patent US20150203561A1.

System: human dermal fibroblasts
Experiment: Collagen secretion, colorimetric assay
Assay type: cell-based
Design: key: P = active; U = useful
Settings: summary of peptide uses
Quantity Measured: Inhibits collagens

Substance | System Under Test | Result Value
H-SDKPDMAEIEKFDKSKLKKTETQ-OH [Fragment Ba] | human dermal fibroblasts | U
Ac-Met-Ala-Glu-Ile-Glu-Lys-Phe-Asp-Lys-Ser-OH (Ac-MAEIEKFDKS-OH) [Peptide 7B] | human dermal fibroblasts | U
Ac-SDKPDMAEIEKFDKS-OH [Peptide 3B] | human dermal fibroblasts | P
H-Leu-Lys-Lys-Thr-Glu-Thr-Gln-Glu-Lys-Asn-Pro-Leu-Pro-Ser-Lys-Glu-Thr-Ile-Glu-Gln-Glu-Lys-Gln-Ala-Gly-Glu-Ser-OH (H-LKKTETQEKNPLPSKETIEQEKQAGES-OH) [Fragment Da] | human dermal fibroblasts | U

###

Tested on: human dermal fibroblasts
Test: Collagen secretion, colorimetric assay
Assay type: cell-based
Design: key: P = active; U = useful
Conditions: summary of peptide uses
Quantity Measured: Inhibits collagens

Record excerpt, results attached:
Substance | Inhibits collagens
H-SDKPDMAEIEKFDKSKLKKTET-OH [Fragment Aa] | U
Ac-Leu-Lys-Lys-Thr-Glu-Thr-OH (Ac-LKKTET-OH) [Peptide 1B] | P
Ac-Ile-Glu-Gln-Glu-Lys-Gln-Ala-Gly-Glu-Ser-OH (Ac-IEQEKQAGES-OH) [Peptide 6B] | P
Ac-SDKPDMAEIEKFDKSKLKKTETQ-OH [Fragment Bb] | U
Ac-SDKPDMAEIEKFDKSKLKKTET-OH [Fragment Ab] | U
H-Ile-Glu-Gln-Glu-Lys-Gln-Ala-Gly-Glu-Ser-OH (H-IEQEKQAGES-OH) [Peptide 6A] | P

// lookup Inhibits collagens | system=human dermal fibroblasts | key= H-Met-Ala-Glu-Ile-Glu-Lys-Phe-Asp-Lys-Ser-OH (H-MAEIEKFDKS-OH) [Peptide 7A]
P

What do you have for H-Ser-Asp-Lys-Pro-OH (H-SDKP-OH) [Peptide 2A] ?
P

What do you have for Ac-Leu-Lys-Lys-Thr-Glu-Thr-Gln-Glu-Lys-Asn-Pro-Leu-Pro-Ser-Lys-Glu-Thr-Ile-Glu-Gln-Glu-Lys-Gln-Ala-Gly-Glu-Ser-OH (Ac-LKKTETQEKNPLPSKETIEQEKQAGES-OH) [Fragment Db] ?
U

###

Test system: human dermal Fb
Test: CHX-induced apoptosis (APOPercentage dye) in human dermal Fb
Type: cell-based
Parameters: key: P = active; U = useful
Details: summary of peptide uses
Quantity Measured: Inhibits apoptosis

Substance | Inhibits apoptosis
H-SDKPDMAEIEKFDKS-OH [Peptide 3A] | P
H-SDKPDMAEIEKFDKSKLKKTETQ-OH [Fragment Ba] | U
Ac-SDKPDMAEIEKFDKSKLKKTET-OH [Fragment Ab] | U
Ac-SDKPDMAEIEKFDKSKLKKTETQ-OH [Fragment Bb] | U

Continue with the substance presented below.
Recorded Inhibits apoptosis of H-SDKPDMAEIEKFDKSKLKKTET-OH [Fragment Aa] , please.
U

###

Test system: TNF-a-stimulated IL8 secretion
Assay: Suppression of inflammation (summary table; IL-8 secretion)
Assay type: cell-based, human
Set-up: key: P = active; U = useful
Conditions: summary of peptide uses
Experimental: Analysis of IL-8 Secretion • Human corneal epithelial cells or dermal Fb were cultured to 80% confluence • Cells were pre-treated with 1 μg/ml Tb4 or peptides for one hour • Cells were stimulated with 10 ng/ml TNF-a in the presence or absence of Tb4 or peptides • Culture medium was analyzed for secreted IL-8 by ELISA (n=3, experiments repeated twice) • Data was analyzed using the t-test
Quantity Measured: Suppresses inflammation

Record excerpt, results attached:
Substance | System Under Test | Result Value
Ac-SDKPDMAEIEKFDKSKLKKTET-OH [Fragment Ab] | TNF-a-stimulated IL8 secretion | U
H-SDKPDMAEIEKFDKS-OH [Peptide 3A] | TNF-a-stimulated IL8 secretion | P
H-SDKPDMAEIEKFDKSKLKKTET-OH [Fragment Aa] | TNF-a-stimulated IL8 secretion | U
Ac-Ser-Asp-Lys-Pro-OH (Ac-SDKP-OH) [Peptide 2B] | TNF-a-stimulated IL8 secretion | P
Ac-SDKPDMAEIEKFDKSKLKKTETQ-OH [Fragment Bb] | TNF-a-stimulated IL8 secretion | U

Recorded Suppresses inflammation of H-SDKPDMAEIEKFDKSKLKKTETQ-OH [Fragment Ba] , please.
U

What do you have for H-Leu-Lys-Lys-Thr-Glu-Thr-OH (H-LKKTET-OH) [Peptide 1A] ?
P

###

Tested on: human dermal fibroblasts
Assay: Elastin secretion, colorimetric assay
Assay type: cell-based
Parameters: key: P = active; U = useful
Settings: summary of peptide uses

Substance | Stimulates Elastin
H-SDKPDMAEIEKFDKSKLKKTET-OH [Fragment Aa] | U
Ac-Leu-Lys-Lys-Thr-Glu-Thr-Gln-OH (Ac-LKKTETQ-OH) [Peptide 4B] | P
Ac-Leu-Lys-Lys-Thr-Glu-Thr-Gln-Glu-Lys-Asn-Pro-Leu-Pro-Ser-Lys-Glu-Thr-Ile-Glu-Gln-Glu-Lys-Gln-Ala-Gly-Glu-Ser-OH (Ac-LKKTETQEKNPLPSKETIEQEKQAGES-OH) [Fragment Db] | U
H-Leu-Lys-Lys-Thr-Glu-Thr-Gln-OH (H-LKKTETQ-OH) [Peptide 4A] | P

###

Test system: neurite outgrowth
Experiment: Promotion of neurite outgrowth (summary table)
Set-up: key: P = active; U = useful
Settings: summary of peptide uses
Quantity Measured: Promotes neurite outgrowth

Record excerpt, results attached:
Substance | Promotes neurite outgrowth
Ac-Leu-Lys-Lys-Thr-Glu-Thr-Gln-OH (Ac-LKKTETQ-OH) [Peptide 4B] | U
Ac-Glu-Lys-Asn-Pro-Leu-Pro-Ser-Lys-Glu-Thr-OH (Ac-EKNPLPSKET-OH) [Peptide 5B] | U
Ac-Ile-Glu-Gln-Glu-Lys-Gln-Ala-Gly-Glu-Ser-OH (Ac-IEQEKQAGES-OH) [Peptide 6B] | U
Ac-SDKPDMAEIEKFDKSKLKKTET-OH [Fragment Ab] | U
H-Ser-Asp-Lys-Pro-OH (H-SDKP-OH) [Peptide 2A] | U

Recorded Promotes neurite outgrowth of H-Ile-Glu-Gln-Glu-Lys-Gln-Ala-Gly-Glu-Ser-OH (H-IEQEKQAGES-OH) [Peptide 6A] , please.
U

What do you have for H-Leu-Lys-Lys-Thr-Glu-Thr-OH (H-LKKTET-OH) [Peptide 1A] ?
U

What do you have for Ac-SDKPDMAEIEKFDKSKLKKTETQ-OH [Fragment Bb] ?
U

What do you have for H-Leu-Lys-Lys-Thr-Glu-Thr-Gln-Glu-Lys-Asn-Pro-Leu-Pro-Ser-Lys-Glu-Thr-Ile-Glu-Gln-Glu-Lys-Gln-Ala-Gly-Glu-Ser-OH (H-LKKTETQEKNPLPSKETIEQEKQAGES-OH) [Fragment Da] ?
U

What do you have for H-Met-Ala-Glu-Ile-Glu-Lys-Phe-Asp-Lys-Ser-OH (H-MAEIEKFDKS-OH) [Peptide 7A] ?
U

What do you have for Ac-Ser-Asp-Lys-Pro-OH (Ac-SDKP-OH) [Peptide 2B] ?
U

What do you have for Ac-SDKPDMAEIEKFDKS-OH [Peptide 3B] ?
U

###

Tested on: human dermal fibroblasts
Test: LDH cytotoxicity assay in human dermal fibroblasts exposed to cytotoxic agents
Assay type: cell-based
Design: key: P = active; U = useful
Details: summary of peptide uses
Quantity Measured: Protects from cytotoxicity

Substance | Quantity Measured | Result Value
Ac-SDKPDMAEIEKFDKS-OH [Peptide 3B] | Protects from cytotoxicity | P
Ac-SDKPDMAEIEKFDKSKLKKTET-OH [Fragment Ab] | Protects from cytotoxicity | U
H-SDKPDMAEIEKFDKS-OH [Peptide 3A] | Protects from cytotoxicity | P
Ac-SDKPDMAEIEKFDKSKLKKTETQ-OH [Fragment Bb] | Protects from cytotoxicity | U
H-SDKPDMAEIEKFDKSKLKKTETQ-OH [Fragment Ba] | Protects from cytotoxicity | U

Continue with the substance presented below.
Recorded Protects from cytotoxicity of H-SDKPDMAEIEKFDKSKLKKTET-OH [Fragment Aa] , please.
U

###

System: neurite outgrowth
Experiment: Promotion of neurite outgrowth (summary table)
Set-up: key: P = active; U = useful
Details: summary of peptide uses
Quantity Measured: Promotes neurite outgrowth

Record excerpt, results attached:
Substance | Result Value
H-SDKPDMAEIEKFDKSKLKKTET-OH [Fragment Aa] | U
Ac-Leu-Lys-Lys-Thr-Glu-Thr-Gln-Glu-Lys-Asn-Pro-Leu-Pro-Ser-Lys-Glu-Thr-Ile-Glu-Gln-Glu-Lys-Gln-Ala-Gly-Glu-Ser-OH (Ac-LKKTETQEKNPLPSKETIEQEKQAGES-OH) [Fragment Db] | U
H-SDKPDMAEIEKFDKS-OH [Peptide 3A] | U
Ac-Leu-Lys-Lys-Thr-Glu-Thr-OH (Ac-LKKTET-OH) [Peptide 1B] | U
H-Leu-Lys-Lys-Thr-Glu-Thr-Gln-OH (H-LKKTETQ-OH) [Peptide 4A] | U
H-SDKPDMAEIEKFDKSKLKKTETQ-OH [Fragment Ba] | U

Recorded Promotes neurite outgrowth of Ac-Met-Ala-Glu-Ile-Glu-Lys-Phe-Asp-Lys-Ser-OH (Ac-MAEIEKFDKS-OH) [Peptide 7B] , please.
U

What do you have for H-Glu-Lys-Asn-Pro-Leu-Pro-Ser-Lys-Glu-Thr-OH (H-EKNPLPSKET-OH) [Peptide 5A] ?
U
